Test system: HL-60
Test: NCI tumour cell line growth inhibition, 48 h
Active and inactive are the calls of the source. No stated cut-off is given here; in the data, active = GI50 up to about 1.1 µM and inactive = higher.
Just give me one of these, please: true (1) = active, false (0) = inactive

Hello, I am checking results. What call was entered for `CC(C)(c1ccccc1)c1ccc(Oc2ccc(C#N)c(C#N)c2)cc1` ?
false (0)

Hello, I am checking results. What call was entered for `CC(C)(C)c1nc2c(o1)/C(=N\c1ccc(F)cc1)c1ccccc1C2=O` ?
false (0)

Hello, I am checking results. What call was entered for `CCOC(=O)Cc1cc(=O)oc2cc(O)ccc12` ?
false (0)

Hello, I am checking results. What call was entered for `Cc1ccc2occ/c(=N\Nc3ccccc3)c2c1` ?
false (0)

Hello, I am checking results. What call was entered for `Cc1c2c(c(C)c3c1[nH]c1ccccc13)CN(C)CC2` ?
false (0)

Hello, I am checking results. What call was entered for `CCOC(=O)NNC(=O)NCc1ccccc1CNC(=O)NNC(=O)OCC` ?
false (0)

Hello, I am checking results. What call was entered for `Cc1cc(C)cc(NC(N)=S)c1` ?
false (0)

Hello, I am checking results. What call was entered for Cc1c(CNc2ccc(C(=O)NC(CC(=O)O)C(=O)O)cc2)ccc2nc(N)nc(N)c12 (configuration not stated) ?
true (1)

Hello, I am checking results. What call was entered for `O=C(Cn1ccnc1[N+](=O)[O-])N(CCO)CCO` ?
false (0)

Hello, I am checking results. What call was entered for Clc1ccc(Cc2nc3cc(Cl)c(Cl)cc3n2CC2CCCN3CCCCC23)cc1 (configuration not stated) ?
false (0)

Hello, I am checking results. What call was entered for `O=C(NCCc1ccccc1)[C@H]1CCCC[C@@H]1CCO` ?
false (0)

Hello, I am checking results. What call was entered for `CCOC(=O)/C(C(N)=O)=C(O)/C(O)=C(\Br)C(=O)c1ccccc1` ?
true (1)

Hello, I am checking results. What call was entered for `NCc1ccccc1C1CSCSC1` ?
false (0)

Hello, I am checking results. What call was entered for `O=C(OCCN=C1c2ccccc2CCc2ccccc21)c1ccccc1` ?
false (0)

Hello, I am checking results. What call was entered for C=CCc1cc(OC)c2c(c1)C(O)CC(c1ccccc1)O2 (configuration not stated) ?
false (0)

Hello, I am checking results. What call was entered for `COc1cc([C@@H]2c3cc4c(cc3[C@@H](Nc3ccc(NC(=O)c5cc([N+](=O)[O-])cn5C)cc3)[C@H]3COC(=O)[C@H]23)OCO4)cc(OC)c1O` ?
true (1)

Hello, I am checking results. What call was entered for CC(C)C1OC2(C)OC(=N)C1(C#N)C(C#N)(C#N)C2C (configuration not stated) ?
false (0)

Hello, I am checking results. What call was entered for CC(=O)c1ccc(OCC(O)CO)cc1 (configuration not stated) ?
false (0)

Hello, I am checking results. What call was entered for `Cc1ccc(C(=O)OCC(C)C)cc1/N=N/N(C)C` ?
false (0)

Hello, I am checking results. What call was entered for COc1ccc(C2[C@H]3C(=O)N(c4ccc(Cc5ccc(N6C(=O)[C@@H]7ON(c8ccccc8)C(c8ccc(OC)cc8)[C@@H]7C6=O)cc5)cc4)C(=O)[C@H]3ON2c2ccccc2)cc1 (some centres not stated) ?
false (0)

Hello, I am checking results. What call was entered for `COC(=O)c1c[nH]cc1CCCCc1c[nH]cc1C(=O)OC` ?
false (0)

Hello, I am checking results. What call was entered for `COc1ccc(N2C(=O)c3cc(C)cnc3S2(=O)=O)cc1` ?
false (0)
